# measuredTarget: cAMP-dependent protein kinase A (Bos taurus, UniProt P00515+P00517+P05131+P31322)
# assayNotes: Inhibition of PKA at 2 mM ATP
# Format: protein-complex assay
pIC50: −log10 of the molar value.
quantityName: pIC50

Below are worked cases with known answers.
Given item N=C(N)NCCn1cnc2c(N)ncnc21 , the value recorded as its pIC50 is 3.10

Given item Nc1ncnc2c1ncn2[C@@H]1O[C@H](CO)[C@@H](O)[C@H]1O , the value recorded as its pIC50 is 2.96

[P] N=C(N)NCCOCCOCCn1cnc2c(N)ncnc21
[Q] N=C(N)NCCOCCn1cnc2c(N)ncnc21
Kindly identify the item with the lower pIC50 figure among these two: P and Q State the label of the item chosen. P

* * *

# measuredTarget: cAMP-dependent protein kinase A (Bos taurus, UniProt P00515+P00517+P05131+P31322)
# assayNotes: Inhibition of PKA at 100 uM ATP
# Type: protein-complex assay
quantityName: IC50 (µM)

The compound N=C(N)NCCOCCn1cnc2c(N)ncnc21 , tested on cAMP-dependent protein kinase A (Bos taurus, UniProt P00515+P00517+P05131+P31322), showed IC50 of 320

[I] N=C(N)NCCn1cnc2c(N)ncnc21
[II] N=C(N)NCCOCCOCCn1cnc2c(N)ncnc21
[III] Nc1ncnc2c1ncn2[C@@H]1O[C@H](CO)[C@@H](O)[C@H]1O
rank_up(items): orders items by reported IC50 in ascending numerical order. Record the ranking as a list of labels in the requested order. III, I, II

* * *

# measuredTarget: cAMP-dependent protein kinase A (Bos taurus, UniProt P00515+P00517+P05131+P31322)
# assayNotes: Inhibitory constant for Protein Kinase A
quantityName: Ki (µM)

[1] N=C(N)NCCOCCn1cnc2c(N)ncnc21
[2] N=C(N)NCCOCCOCCn1cnc2c(N)ncnc21
Kindly identify the item with the lower Ki figure among these two: 1 and 2 State the label of the item chosen. 1

[A] Nc1ncnc2c1ncn2[C@@H]1O[C@H](CO)[C@@H](O)[C@H]1O [ADENOSINE]
[B] N=C(N)NCCn1cnc2c(N)ncnc21
Which shows the larger Ki value: A or B ? State the label of the item chosen. B
(B: 38 µM, A: 15 µM)
